Experiment: qHTS assay to identify small molecule agonists of the vitamin D receptor (VDR) signaling pathway - cell viability counter screen (AID 743224); note: nearly all actives have a fitted effect of over 50% in size
Conditions: VDR-bla HEK293T viability, CellTiter-Glo luminescence, 16 h; series mostly up to 62.6 µM
Records with an inconclusive call do not appear. Calls of active or inactive are those of the source. Calls come from the whole dose curve; as a rule, active = well fitted cell-killing curve with a large enough effect in the repeat runs; inconclusive = weak or mixed curves, or effect the other way; inactive = no such curve, though single readings can be large or run the other way.
Result category, one only: yes (1) for active, no (0) for inactive

// known answers, use as guide
INSERT INTO assay_data (molecule, category) VALUES
  ('CC(=O)[C@H]1CC[C@H]2[C@@H]3CC=C4C[C@@H](O)CC[C@]4(C)[C@H]3CC[C@]12C', 'no (0)'),
  ('Cc1ccc(C)c(O)c1', 'no (0)'),
  ('CCCCCC=O', 'no (0)'),
  ('O=C(O)c1ccc(O)cc1', 'no (0)'),
  ('IC(I)I', 'no (0)');

Challenge: Recorded test call requested for "C/C=C/C(=O)N(CC)c1ccccc1C"
Response given: no (0)

Challenge: Recorded test call requested for "CN(C)C"
Response given: no (0)

Origin of values: PubChem BioAssay (Tox21)
